Target: native human TRPA1 receptors (Homo sapiens)
Construct: stably expressing native human TRPA1 receptors were used; endogenous in cells; host or cells: A549 human lung adenocarcinoma epithelial cell line
Assay: PF-4840154 (1 μM)-induced Ca2+ fluorescence measurements in A549 cell line
Assay type: cell-based
Conditions: against PF-4840154 (1 μM)-evoked [Ca2+]i mobilization, A549 cells
pIC50: −log10 of the molar value.
assay_metric: pIC50

>  <smiles_record>
CCN(C1(C(=O)NCc2cccc(-c3ccc(C(F)(F)F)cc3)c2)CC1)S(=O)(=O)c1ccc(Cl)s1

>  <assay_result>
7.42

$$$$
>  <smiles_record>
C=C(C(=O)NCc1ccnc(-c2ccc(C(F)(F)F)cc2)c1)N(CC)S(=O)(=O)c1ccc(F)c(F)c1

>  <assay_result>
7.24

$$$$
>  <smiles_record>
CCN(C1(C(=O)NCc2cccc(-c3ccc(C(F)(F)F)cc3)c2)CC1)S(=O)(=O)c1ccc(Cl)cc1

>  <assay_result>
7.00

$$$$
>  <smiles_record>
CCN(C1(C(=O)NCc2cc(OC(C)C)nc(-c3ccc(C(F)(F)F)cc3)c2)CC1)S(=O)(=O)c1ccc(F)cc1

>  <assay_result>
7.02

$$$$
>  <smiles_record>
CCN(C1(C(=O)NCc2cc(-c3ccc(C(F)(F)F)cc3)nc(N3CCCC3)c2)CC1)S(=O)(=O)c1ccc(Cl)s1

>  <assay_result>
7.60

$$$$
>  <smiles_record>
C=C(C(=O)NCc1cc(OC(C)C)nc(-c2ccc(C(F)(F)F)cc2)c1)N(CC)S(=O)(=O)c1ccc(F)cc1

>  <assay_result>
7.74

$$$$
>  <smiles_record>
CCN(C1(C(=O)NCc2ccnc(-c3ccc(OC(F)(F)F)cc3)c2)CC1)S(=O)(=O)c1ccc(Cl)cc1

>  <assay_result>
6.87

$$$$

----------
Test system: PF-4840154-induced mechanical hyperalgesia in rats
Assay: Agonist (PF-4840154)-induced mechanical hyperalgesia in rats
Type: in vivo
Settings: Rattus norvegicus, 30 μmol/kg oral, PF-4840154 0.05 nmol/50 μl/paw intraplantar, read-out: % of reversal of mechanical allodynia

>  <compound>
CCN(C1(C(=O)NCc2cc(-c3ccc(C(F)(F)F)cc3)nc(N3CCCC3)c2)CC1)S(=O)(=O)c1ccc(F)cc1 [Example 51]

>  <readout_unit>
%

>  <inhibition in vivo at 30 µmol/kg>
76

$$$$
>  <compound>
C=C(C(=O)NCc1ccnc(-c2ccc(OC(F)(F)F)cc2)c1)N(CC)S(=O)(=O)c1ccc(Cl)cc1 [Example 5]

>  <readout_unit>
%

>  <inhibition in vivo at 30 µmol/kg>
76

$$$$
>  <compound>
CCOc1cc(CNC(=O)C2(N(CC)S(=O)(=O)c3ccc(Cl)s3)CC2)cc(-c2ccc(C(F)(F)F)cc2)n1 [Example 53]

>  <readout_unit>
%

>  <inhibition in vivo at 30 µmol/kg>
89

$$$$
>  <compound>
C=C(C(=O)NCc1cc(-c2ccc(C(F)(F)F)cc2)nc(N2CCCC2)c1)N(CC)S(=O)(=O)c1ccc(F)cc1 [Example 38]

>  <readout_unit>
%

>  <inhibition in vivo at 30 µmol/kg>
87

$$$$

----------
Molecular target: native human TRPA1 receptors (Homo sapiens, UniProt O75762)
Construct: stably expressing native human TRPA1 receptors were used; endogenous in cells; host or cells: A549 human lung adenocarcinoma epithelial cell line
Sequence (O75762 whole entry): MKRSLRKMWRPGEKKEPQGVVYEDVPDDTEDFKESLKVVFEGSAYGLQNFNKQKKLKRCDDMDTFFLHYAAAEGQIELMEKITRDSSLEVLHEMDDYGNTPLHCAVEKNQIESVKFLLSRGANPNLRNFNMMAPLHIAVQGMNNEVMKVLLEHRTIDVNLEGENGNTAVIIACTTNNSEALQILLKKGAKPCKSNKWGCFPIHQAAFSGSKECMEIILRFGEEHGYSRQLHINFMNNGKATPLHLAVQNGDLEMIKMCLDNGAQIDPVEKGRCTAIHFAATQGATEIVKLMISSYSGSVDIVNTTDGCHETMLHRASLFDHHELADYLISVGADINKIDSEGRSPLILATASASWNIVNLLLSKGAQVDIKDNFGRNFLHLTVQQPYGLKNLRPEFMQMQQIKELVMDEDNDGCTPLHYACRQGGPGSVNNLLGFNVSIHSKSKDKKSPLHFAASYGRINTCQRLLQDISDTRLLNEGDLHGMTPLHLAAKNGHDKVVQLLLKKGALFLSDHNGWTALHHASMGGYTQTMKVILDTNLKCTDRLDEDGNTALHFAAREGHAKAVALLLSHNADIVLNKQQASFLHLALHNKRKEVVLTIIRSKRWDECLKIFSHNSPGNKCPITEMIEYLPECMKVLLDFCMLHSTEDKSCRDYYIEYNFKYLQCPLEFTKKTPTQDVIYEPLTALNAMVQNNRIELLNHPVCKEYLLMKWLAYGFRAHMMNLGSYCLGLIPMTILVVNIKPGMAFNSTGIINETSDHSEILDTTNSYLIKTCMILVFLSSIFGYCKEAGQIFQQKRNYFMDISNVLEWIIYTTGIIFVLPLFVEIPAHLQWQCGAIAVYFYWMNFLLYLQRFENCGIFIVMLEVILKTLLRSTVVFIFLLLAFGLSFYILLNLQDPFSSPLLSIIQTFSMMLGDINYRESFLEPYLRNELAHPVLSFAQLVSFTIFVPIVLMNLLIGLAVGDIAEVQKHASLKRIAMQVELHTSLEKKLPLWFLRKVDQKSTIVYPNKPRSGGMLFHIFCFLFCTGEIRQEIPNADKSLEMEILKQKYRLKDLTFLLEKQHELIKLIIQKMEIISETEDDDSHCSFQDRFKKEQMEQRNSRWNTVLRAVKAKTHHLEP
Test: PF-4840154 (1 μM)-induced Ca2+ fluorescence measurements in A549 cell line
Format: cell-based
Conditions: against PF-4840154 (1 μM)-evoked [Ca2+]i mobilization, A549 cells
IC50 strictly less than 0.03 µM = yes. Otherwise no.

>  <smiles_record>
CCN(C1(C(=O)NCc2cccc(-c3ccc(OC(F)(F)F)cc3)c2)CC1)S(=O)(=O)c1ccc(Cl)s1

>  <label>
no

$$$$
>  <smiles_record>
C=C(C(=O)NCc1cccc(-c2ccc(OC(F)(F)F)cc2)c1)N(CC)S(=O)(=O)c1ccc(F)cc1

>  <label>
yes

$$$$
>  <smiles_record>
C=C(C(=O)NCc1cc(-c2ccc(C(F)(F)F)cc2)nc(N2CCOCC2)c1)N(CC)S(=O)(=O)c1ccc(F)cc1

>  <label>
no

$$$$
>  <smiles_record>
CCN(C1(C(=O)NCc2ccnc(-c3ccc(C(F)(F)F)cc3)c2)CC1)S(=O)(=O)c1ccc(F)cc1

>  <label>
no

$$$$
>  <smiles_record>
C=C(C(=O)NCc1cccc(-c2ccc(OC(F)(F)F)cc2)c1)N(CC)S(=O)(=O)c1ccc(Cl)s1

>  <label>
no

$$$$
>  <smiles_record>
C=C(C(=O)NCc1ccnc(-c2ccc(C(F)(F)F)cc2)c1)N(CC)S(=O)(=O)c1ccc(Cl)s1

>  <label>
no

$$$$
>  <smiles_record>
C=C(C(=O)NCc1cccc(-c2ccc(C(F)(F)F)cc2)c1)N(CC)S(=O)(=O)c1ccc(Cl)cc1

>  <label>
yes

$$$$

----------
Reported inhibition at 10 µM is given for each of the following molecules.
Biological target: native human TRPA1 receptors (Homo sapiens, UniProt O75762)
Construct: stably expressing native human TRPA1 receptors were used; endogenous in cells; host or cells: A549 human lung adenocarcinoma epithelial cell line
Test: PF-4840154 (1 μM)-induced Ca2+ fluorescence measurements in A549 cell line
Assay type: cell-based
Details: 10 μM compound against 1 μM PF-4840154, A549 cells
Experimental: PF-4840154 (1 μM)-Induced Ca^2+ Fluorescence Measurements in A549 Cell Line Human lung adenocarcinoma epithelial cell line (A549) stably expressing native human TRPA1 receptors were used. […] After placing both plates (cell culture and compound plate) into the FlexStation II (Molecular Device, Union City, Calif. 94587, US), fluorescence changes were measured. […] For selected examples the entire inhibitory concentration-response curves were constructed and the IC50 value calculated. […]

>  <smiles_record>
CCN(C1(C(=O)NCc2cc(-c3ccc(C(F)(F)F)cc3)nc(N3CCN(C4CCCCC4)CC3)c2)CC1)S(=O)(=O)c1ccc(Cl)s1

>  <readout_unit>
%

>  <inhibition at 10 µM>
95

$$$$
>  <smiles_record>
CCOc1cc(CNC(=O)C2(N(CC)S(=O)(=O)c3ccc(Cl)s3)CC2)cc(-c2ccc(C(F)(F)F)cc2)n1

>  <readout_unit>
%

>  <inhibition at 10 µM>
100

$$$$
>  <smiles_record>
C=C(C(=O)NCc1cc(-c2ccc(C(F)(F)F)cc2)nc(N2CCCC2)c1)N(C)S(=O)(=O)c1ccc(Cl)cc1

>  <readout_unit>
%

>  <inhibition at 10 µM>
99

$$$$
>  <smiles_record>
CCN(C1(C(=O)NCc2cc(OC)nc(-c3ccc(C(F)(F)F)cc3)c2)CC1)S(=O)(=O)c1ccc(F)cc1

>  <readout_unit>
%

>  <inhibition at 10 µM>
96

$$$$
>  <smiles_record>
C=C(C(=O)NCc1cc(-c2ccc(C(F)(F)F)cc2)nc(N(C)C)c1)N(CC)S(=O)(=O)c1ccc(F)cc1

>  <readout_unit>
%

>  <inhibition at 10 µM>
100

$$$$
>  <smiles_record>
C=C(C(=O)NCc1ccnc(-c2ccc(C(F)(F)F)cc2)c1)N(C)S(=O)(=O)c1ccc(F)cc1

>  <readout_unit>
%

>  <inhibition at 10 µM>
100

$$$$
>  <smiles_record>
CCN(C1(C(=O)NCc2cc(-c3ccc(C(F)(F)F)cc3)nc(N3CCN(CC4CC4)CC3)c2)CC1)S(=O)(=O)c1ccc(F)cc1

>  <readout_unit>
%

>  <inhibition at 10 µM>
99

$$$$

----------
Test system: PF-4840154-induced mechanical hyperalgesia in rats
Experiment: Agonist (PF-4840154)-induced mechanical hyperalgesia in rats
Format: in vivo
Conditions: Rattus norvegicus, 30 μmol/kg oral, PF-4840154 0.05 nmol/50 μl/paw intraplantar, read-out: % of reversal of mechanical allodynia
Below: a set of entries, each annotated with reported inhibition in vivo at 30 µmol/kg.

>  <compound>
C=C(C(=O)NCc1ccnc(-c2ccc(OC(F)(F)F)cc2)c1)N(C)S(=O)(=O)c1ccc(Cl)cc1 [Example 4]

>  <inhibition in vivo at 30 µmol/kg (%)>
67

$$$$
>  <compound>
C=C(C(=O)NCc1cccc(-c2ccc(C(F)(F)F)cc2)c1)N(CC)S(=O)(=O)c1ccc(Cl)cc1 [Example 10]

>  <inhibition in vivo at 30 µmol/kg (%)>
63

$$$$
>  <compound>
C=C(C(=O)NCc1ccnc(-c2ccc(OC(F)(F)F)cc2)c1)N(CC)S(=O)(=O)c1ccc(Cl)s1 [Example 7]

>  <inhibition in vivo at 30 µmol/kg (%)>
74

$$$$
>  <compound>
C=C(C(=O)NCc1ccnc(-c2ccc(C(F)(F)F)cc2)c1)N(CC)S(=O)(=O)c1ccc(F)cc1 [Example 1]

>  <inhibition in vivo at 30 µmol/kg (%)>
80

$$$$
>  <compound>
CCN(C1(C(=O)NCc2cccc(-c3ccc(C(F)(F)F)cc3)c2)CC1)S(=O)(=O)c1ccc(Cl)s1 [Example 59]

>  <inhibition in vivo at 30 µmol/kg (%)>
111

$$$$
>  <compound>
CCN(C1(C(=O)NCc2cc(OC)nc(-c3ccc(C(F)(F)F)cc3)c2)CC1)S(=O)(=O)c1ccc(Cl)s1 [Example 50]

>  <inhibition in vivo at 30 µmol/kg (%)>
76

$$$$
